Data origin: patent US7989464B2

- measurement-target: hmGluR1 receptor (Homo sapiens, UniProt Q13255)
- Construct: expressed in transfected cells
- Sequence (Q13255 19-1194): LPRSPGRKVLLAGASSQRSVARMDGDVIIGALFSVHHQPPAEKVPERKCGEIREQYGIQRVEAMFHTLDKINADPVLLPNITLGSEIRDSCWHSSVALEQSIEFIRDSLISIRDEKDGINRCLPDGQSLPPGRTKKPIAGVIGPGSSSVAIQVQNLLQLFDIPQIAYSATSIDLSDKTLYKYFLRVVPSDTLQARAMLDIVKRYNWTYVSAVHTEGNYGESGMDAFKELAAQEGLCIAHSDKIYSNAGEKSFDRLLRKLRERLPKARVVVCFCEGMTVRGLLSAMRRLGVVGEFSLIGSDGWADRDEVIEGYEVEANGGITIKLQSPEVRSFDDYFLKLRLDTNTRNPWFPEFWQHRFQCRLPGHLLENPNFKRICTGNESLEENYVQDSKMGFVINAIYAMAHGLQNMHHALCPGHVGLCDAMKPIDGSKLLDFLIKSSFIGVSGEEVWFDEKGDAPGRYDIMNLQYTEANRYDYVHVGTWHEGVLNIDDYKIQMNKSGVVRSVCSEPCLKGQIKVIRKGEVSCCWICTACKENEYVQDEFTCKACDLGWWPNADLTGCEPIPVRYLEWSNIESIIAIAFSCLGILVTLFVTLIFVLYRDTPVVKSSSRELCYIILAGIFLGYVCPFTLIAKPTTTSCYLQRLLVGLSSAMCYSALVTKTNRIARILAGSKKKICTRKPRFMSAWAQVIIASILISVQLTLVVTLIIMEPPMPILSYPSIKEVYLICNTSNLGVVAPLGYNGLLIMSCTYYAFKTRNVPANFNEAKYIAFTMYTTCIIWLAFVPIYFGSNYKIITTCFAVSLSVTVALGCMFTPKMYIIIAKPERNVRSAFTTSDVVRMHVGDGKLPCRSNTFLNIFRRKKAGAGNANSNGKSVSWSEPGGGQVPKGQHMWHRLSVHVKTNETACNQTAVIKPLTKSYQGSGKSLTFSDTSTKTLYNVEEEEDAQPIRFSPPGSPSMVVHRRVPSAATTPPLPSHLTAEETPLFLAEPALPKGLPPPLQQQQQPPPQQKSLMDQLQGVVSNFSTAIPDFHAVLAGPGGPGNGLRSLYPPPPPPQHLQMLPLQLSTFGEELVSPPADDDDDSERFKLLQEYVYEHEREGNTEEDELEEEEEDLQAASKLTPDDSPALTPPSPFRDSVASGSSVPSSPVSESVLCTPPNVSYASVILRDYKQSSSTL
- protocol-details: IC50 determination: intracellular calcium mobilization (FLIPR) upon Quisqualate stimulation in CHO cells stably expressing hmGluR1
- Type: cell-based
- assay-conditions: against Quisqualate 1 μM (EC80), class symbols, read-out: mGIuR 1 IC50

{"compound": "CN(C)c1ccnc2sc3c(=O)n(C(C)(C)C)cnc3c12 [15P]", "IC50": "150 to 1000 nM"}
{"compound": "COc1ccc(-n2cnc3c(sc4ncc(Br)c(N(C)C)c43)c2=O)cc1", "IC50": "< 50 nM"}
{"compound": "CN(C)c1ccnc2sc3c(=O)n(-c4ccc(Br)cc4)cnc3c12", "IC50": "< 50 nM"}
{"compound": "CN(C)c1ccnc2sc3c(=O)n(-c4cccnc4)cnc3c12", "IC50": "50 to 150 nM"}
{"compound": "COc1ccc(-n2cnc3c(sc4nccc(NC5CCCCC5)c43)c2=O)cc1 [28E]", "IC50": "> 1000 nM"}
{"compound": "COc1ccc(-n2cnc3c(sc4cncc(N(C)C)c43)c2=O)cc1F [37G]", "IC50": "150 to 1000 nM"}
{"compound": "C#CCNc1ccnc2sc3c(=O)n(-c4ccc(C)cc4)c(C)nc3c12 [113K]", "IC50": "< 50 nM"}
{"compound": "CCNc1ccnc2sc3c(=O)n(-c4ccc(C)cc4)c(C)nc3c12 [113H]", "IC50": "< 50 nM"}
{"compound": "O=c1c2sc3nccc(N4CCOCC4)c3c2ncn1C1CCCCC1 [28O]", "IC50": "> 1000 nM"}
{"compound": "CCc1ccc(-n2cnc3c(sc4nccc(NC)c43)c2=O)cc1", "IC50": "< 50 nM"}
